Values were extracted from PubChem BioAssay (Tox21).

# procedure summary: qHTS assay for identifying genotoxic compounds that show differential cytotoxicity against isogenic chicken DT40 cell lines with known DNA damage response pathways - Rad54/Ku70 mutant cell line (AID 743015); also: nearly all actives have a fitted effect of over 60% in size
# condition description: DT40 Rad54/Ku70 mutant viability, CellTiter-Glo, 40 h; series mostly up to 66.8 µM
Records with an inconclusive call do not appear. Calls of active or inactive are those of the source. Calls follow the shape of the dose curve; as a rule, active = well fitted cell-killing curve with a large enough effect in the repeat runs; inconclusive = weak or mixed curves; inactive = no such curve, though single readings can be large or run the other way.
Your response should consist of one outcome taken from active, inactive

Record excerpt, results attached:
CN1C[C@H](C(=O)N[C@]2(C)O[C@@]3(O)[C@@H]4CCCN4C(=O)[C@H](Cc4ccccc4)N3C2=O)C[C@@H]2c3cccc4[nH]cc(c34)C[C@H]21: active
O=c1c(O)c(-c2ccc(O)cc2)oc2cc(O)cc(O)c12: active
CC(=O)OCC[N+](C)(C)C: inactive
O[C@@H]1CO[C@H]2[C@@H]1OC[C@@H]2O: inactive

Check the results log: what was the call for CN1CC(=O)N2[C@H](c3ccc4c(c3)OCO4)c3[nH]c4ccccc4c3C[C@@H]2C1=O ? inactive

###

# procedure summary: qHTS assay for identifying genotoxic compounds that show differential cytotoxicity against isogenic chicken DT40 cell lines with known DNA damage response pathways - Rad54/Ku70 mutant cell line (AID 743015); also: nearly all actives have a fitted effect of over 60% in size
# condition description: DT40 Rad54/Ku70 mutant viability, CellTiter-Glo, 40 h; series mostly up to 66.8 µM
# Excerpt: National Center for Advancing Translational Sciences [NCATS] NIH Chemical Genomics Center [NCGC] U.S. Environmental Protection Agency [EPA] National Institutes of Environmental Health Sciences [NIEHS] National Toxicology Program [NTP] U.S. Food and Drug Administration [FDA] DNA repair pathways play a critical role in cellular homeostasis by repairing DNA damage induced by endogenous processes and xenobiotics. […]
Records with an inconclusive call do not appear. Calls of active or inactive are those of the source. The call rests on the fitted dose curve; in most records, active means well fitted cell-killing curve with a large enough effect in the repeat runs; inconclusive means weak or mixed curves; inactive means no such curve, though single readings can be large or run the other way.
Your response should consist of one outcome taken from 1 for active, -1 for inactive

Record excerpt, results attached:
CCOC(=O)OC(C)OC(=O)[C@@H]1N2C(=O)[C@@H](NC(=O)[C@H](N)c3ccccc3)[C@H]2SC1(C)C (stereo partly specified): -1
CCCCCCCCCCCCCCN(CCO)CCO: 1

Check the results log: what was the call for N#CCc1ccc(Cl)cc1Cl ? -1

Check the results log: what was the call for CC1(C)[C@@H](OC(=O)CCC(=O)O)CC[C@]2(C)[C@H]3C(=O)C=C4[C@@H]5C[C@@](C)(C(=O)O)CC[C@]5(C)CC[C@@]4(C)[C@]3(C)CC[C@@H]12 ? -1

Check the results log: what was the call for CC(C)=CCC1C(=O)N(c2ccccc2)N(c2ccccc2)C1=O ? 1

Check the results log: what was the call for COc1cc(C(=O)NCCCCCC(=O)O)cc(OC)c1OC ? -1

Check the results log: what was the call for c1csc(SSc2cccs2)c1 ? 1

Check the results log: what was the call for CC(C)(c1ccccc1)c1ccccc1 ? -1

Check the results log: what was the call for CCCCCCCCN ? -1

Check the results log: what was the call for Nc1cccc2c1CN(C1CCC(=O)NC1=O)C2=O (stereo unspecified) ? -1

Check the results log: what was the call for CC1(C)[C@H](C(=O)O)N2C(=O)C[C@H]2S1(=O)=O ? -1

###

# procedure summary: A CellTox Green Cytotoxicity Assay to monitor cytotoxicity in HEK293 cells - 32 hour (AID 1224881); also: nearly all actives have a fitted effect of over 40% in size
# condition description: CellTox Green fluorescence; series mostly up to 76.8 µM
Inconclusive results are not listed. The source made the active and inactive calls. Calls come from the whole dose curve; as a rule, active = well fitted activation curve with a large enough effect in the repeat runs; inconclusive = weak or mixed curves; inactive = flat fitted curve, though single readings scatter.
Your response should consist of one outcome taken from true = active, false = inactive

Check the results log: what was the call for O=C(Nc1cccc2c(=O)cc(-c3nn[nH]n3)oc12)c1ccc(OCCCCc2ccccc2)cc1 ? false
